tested on: 361931-004-R-J1-PDC multicell spheroid viability; test: Anticancer human tumor 361931-004-R-J1-PDC patient-derived colon adenocarcinoma cell line growth inhibition [PI3K]; details: second compound 0.0316 µM; first compound 1 µM; stronger effect = lower value
For each record, write down the corresponding viability, T/C.
Your answer should be a plain number; it is taken to be in %.

Identify measured viability, T/C associated with Cn1ncc(Cl)c1-c1cc(C(=O)NC(CN)Cc2cccc(F)c2)sc1Cl (stereo not drawn) + CC(Nc1ncnc2nc[nH]c12)c1cc2cccc(Cl)c2c(=O)n1-c1ccccc1
70.6

Identify measured viability, T/C associated with C[C@@H](NC(=O)c1ncnc(N)c1Cl)c1ncc(C(=O)Nc2cc(C(F)(F)F)c(Cl)cn2)s1 + COc1c(OCCCN2CCOCC2)ccc2c3n(c(=NC(=O)c4cnc(N)nc4)nc12)CCN3
87.7

Identify measured viability, T/C associated with CC(Cn1ccc(-c2ccc(C#N)c(Cl)c2)n1)NC(=O)c1cc(C(C)O)[nH]n1 (stereo not drawn) + CC(Nc1ncnc2nc[nH]c12)c1cc2cccc(Cl)c2c(=O)n1-c1ccccc1
90

* * *

For each record, write down the corresponding IC50.
test system: 361931-004-R-J1-PDC multicell spheroid viability; assay: Anticancer human tumor 361931-004-R-J1-PDC cell line growth inhibition [PI3K]; details: curve of first compound; second compound 1 µM;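 note: spheroids exposed to agents for seven days before readout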

Identify measured IC50 associated with Cn1cnc2c(F)c(Nc3ccc(Br)cc3Cl)c(C(=O)NOCCO)cc21 + CC(Nc1ncnc2nc[nH]c12)c1cc2cccc(Cl)c2c(=O)n1-c1ccccc1
> 3 µM

Identify measured IC50 associated with CNC(=O)c1ccc(N2C(=S)N(c3ccc(C#N)c(C(F)(F)F)c3)C(=O)C2(C)C)cc1F + COc1c(OCCCN2CCOCC2)ccc2c3n(c(=NC(=O)c4cnc(N)nc4)nc12)CCN3
< 0.0316 µM

Identify measured IC50 associated with Cn1ncc(Cl)c1-c1cc(C(=O)NC(CN)Cc2cccc(F)c2)sc1Cl (configuration not stated) + COc1c(OCCCN2CCOCC2)ccc2c3n(c(=NC(=O)c4cnc(N)nc4)nc12)CCN3
< 0.0316 µM

Identify measured IC50 associated with CC(Cn1ccc(-c2ccc(C#N)c(Cl)c2)n1)NC(=O)c1cc(C(C)O)[nH]n1 (configuration not stated) + Cc1nc(NC(=O)N2CCCC2C(N)=O)sc1-c1ccnc(C(C)(C)C(F)(F)F)c1
> 10 µM

Identify measured IC50 associated with CC1(C)CCC(Nc2ncc(C(F)(F)F)c(-c3c[nH]c4c(P(C)(C)=O)c(C#N)ccc34)n2)CN1 (configuration not stated) + Cc1nc(NC(=O)N2CCCC2C(N)=O)sc1-c1ccnc(C(C)(C)C(F)(F)F)c1
4.32 µM

Identify measured IC50 associated with Cn1ncnc1[C@H]1c2n[nH]c(=O)c3cc(F)cc(c23)N[C@@H]1c1ccc(F)cc1 + CC(Nc1ccc2c(c1)OCCn1cc(N3C(=O)OCC3C(F)F)nc1-2)C(N)=O
> 0.1 µM

Identify measured IC50 associated with C#Cc1c(F)ccc2cc(O)cc(-c3ncc4c(N5CC6CCC(C5)N6)nc(OCC56CCCN5CC(F)C6)nc4c3F)c12 (configuration not stated) + CC(Nc1ncnc2nc[nH]c12)c1cc2cccc(Cl)c2c(=O)n1-c1ccccc1
> 10 µM

* * *

tested on: 361931-004-R-J1-PDC multicell spheroid viability; experiment: Anticancer human tumor 361931-004-R-J1-PDC cell line growth inhibition [PI3K]; conditions: second compound 0.00316 µM; first compound 10 µM; active means viability on the fitted dose curve at most 10% of control; inactive means the rest;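 note: spheroids exposed to agents for seven days before readout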
Parameter call: string, one of active, inactive

Identify the outcome logged in this assay for the compound shown: Cn1ncc(Cl)c1-c1cc(C(=O)NC(CN)Cc2cccc(F)c2)sc1Cl (stereo not drawn) + CC(Nc1ccc2c(c1)OCCn1cc(N3C(=O)OCC3C(F)F)nc1-2)C(N)=O
inactive

Identify the outcome logged in this assay for the compound shown: CNC(=O)c1ccc(N2C(=S)N(c3ccc(C#N)c(C(F)(F)F)c3)C(=O)C2(C)C)cc1F + CC(Nc1ccc2c(c1)OCCn1cc(N3C(=O)OCC3C(F)F)nc1-2)C(N)=O
inactive

Identify the outcome logged in this assay for the compound shown: CCCS(=O)(=O)Nc1ccc(F)c(C(=O)c2c[nH]c3ncc(-c4ccc(Cl)cc4)cc23)c1F + CC(Nc1ccc2c(c1)OCCn1cc(N3C(=O)OCC3C(F)F)nc1-2)C(N)=O
active

* * *

test system: 361931-004-R-J1-PDC multicell spheroid viability; assay: Anticancer human tumor 361931-004-R-J1-PDC cell line growth inhibition [PI3K]; details: second compound 3.16 µM; first compound 0.316 µM; stronger effect = lower value;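 note: spheroids exposed to agents for seven days before readout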
For each record, write down the corresponding viability, T/C.
Your answer should be a plain number; it is taken to be in %.

Identify measured viability, T/C associated with C[C@@H](NC(=O)c1ncnc(N)c1Cl)c1ncc(C(=O)Nc2cc(C(F)(F)F)c(Cl)cn2)s1 + CC(Nc1ncnc2nc[nH]c12)c1cc2cccc(Cl)c2c(=O)n1-c1ccccc1
107

Identify measured viability, T/C associated with C=CC(=O)N1CCN(c2nc(=O)n(-c3c(C)ccnc3C(C)C)c3nc(-c4c(O)cccc4F)c(F)cc23)C(C)C1 (stereo not drawn) + Cc1nc(NC(=O)N2CCCC2C(N)=O)sc1-c1ccnc(C(C)(C)C(F)(F)F)c1
67

Identify measured viability, T/C associated with Cn1nccc1Nc1nccc(-c2ccn(C(CO)c3ccc(Cl)c(F)c3)c(=O)c2)n1 (stereo not drawn) + Cc1nc(NC(=O)N2CCCC2C(N)=O)sc1-c1ccnc(C(C)(C)C(F)(F)F)c1
75.9

* * *

tested on: 361931-004-R-J1-PDC multicell spheroid viability; test: Anticancer human tumor 361931-004-R-J1-PDC cell line growth inhibition [PI3K]; conditions: second compound 0.0316 µM; first compound 0.0316 µM; stronger effect = lower value;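 note: spheroids exposed to agents for seven days before readout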
reported.metric: viability, T/C (%)
Your answer should be a plain number; it is taken to be in %.

Under 361931-004-R-J1-PDC multicell spheroid viability, report viability, T/C for C[C@@H](NC(=O)c1ncnc(N)c1Cl)c1ncc(C(=O)Nc2cc(C(F)(F)F)c(Cl)cn2)s1 + Cc1nc(NC(=O)N2CCCC2C(N)=O)sc1-c1ccnc(C(C)(C)C(F)(F)F)c1
104

Under 361931-004-R-J1-PDC multicell spheroid viability, report viability, T/C for Cn1nccc1Nc1nccc(-c2ccn(C(CO)c3ccc(Cl)c(F)c3)c(=O)c2)n1 (stereo unspecified) + CC(Nc1ccc2c(c1)OCCn1cc(N3C(=O)OCC3C(F)F)nc1-2)C(N)=O
106

Under 361931-004-R-J1-PDC multicell spheroid viability, report viability, T/C for CC(C)n1nc(-c2ccc3oc(N)nc3c2)c2c(N)ncnc21 + Cc1nc(NC(=O)N2CCCC2C(N)=O)sc1-c1ccnc(C(C)(C)C(F)(F)F)c1
101

Under 361931-004-R-J1-PDC multicell spheroid viability, report viability, T/C for CCN1CCN(Cc2ccc(Nc3ncc(F)c(-c4cc(F)c5nc(C)n(C(C)C)c5c4)n3)nc2)CC1 + Cc1nc(NC(=O)N2CCCC2C(N)=O)sc1-c1ccnc(C(C)(C)C(F)(F)F)c1
99.5

Under 361931-004-R-J1-PDC multicell spheroid viability, report viability, T/C for CCCS(=O)(=O)Nc1ccc(F)c(C(=O)c2c[nH]c3ncc(-c4ccc(Cl)cc4)cc23)c1F + CC(Nc1ncnc2nc[nH]c12)c1cc2cccc(Cl)c2c(=O)n1-c1ccccc1
111

Under 361931-004-R-J1-PDC multicell spheroid viability, report viability, T/C for C[C@@H](NC(=O)c1ncnc(N)c1Cl)c1ncc(C(=O)Nc2cc(C(F)(F)F)c(Cl)cn2)s1 + CC(Nc1ncnc2nc[nH]c12)c1cc2cccc(Cl)c2c(=O)n1-c1ccccc1
105

Under 361931-004-R-J1-PDC multicell spheroid viability, report viability, T/C for CC(C)NCC(C(=O)N1CCN(c2ncnc3c2C(C)CC3O)CC1)c1ccc(Cl)cc1 (stereo unspecified) + Cc1nc(NC(=O)N2CCCC2C(N)=O)sc1-c1ccnc(C(C)(C)C(F)(F)F)c1
96.2

Under 361931-004-R-J1-PDC multicell spheroid viability, report viability, T/C for CC(=O)c1c(C)c2cnc(Nc3ccc(N4CCNCC4)cn3)nc2n(C2CCCC2)c1=O + CC(Nc1ncnc2nc[nH]c12)c1cc2cccc(Cl)c2c(=O)n1-c1ccccc1
102

Under 361931-004-R-J1-PDC multicell spheroid viability, report viability, T/C for C#Cc1c(F)ccc2cc(O)cc(-c3ncc4c(N5CC6CCC(C5)N6)nc(OCC56CCCN5CC(F)C6)nc4c3F)c12 (stereo unspecified) + Cc1nc(NC(=O)N2CCCC2C(N)=O)sc1-c1ccnc(C(C)(C)C(F)(F)F)c1
104

Under 361931-004-R-J1-PDC multicell spheroid viability, report viability, T/C for C#Cc1c(F)ccc2cc(O)cc(-c3ncc4c(N5CC6CCC(C5)N6)nc(OCC56CCCN5CC(F)C6)nc4c3F)c12 (stereo unspecified) + CC(Nc1ncnc2nc[nH]c12)c1cc2cccc(Cl)c2c(=O)n1-c1ccccc1
98.8

Under 361931-004-R-J1-PDC multicell spheroid viability, report viability, T/C for CC(C)n1nc(-c2ccc3oc(N)nc3c2)c2c(N)ncnc21 + COc1c(OCCCN2CCOCC2)ccc2c3n(c(=NC(=O)c4cnc(N)nc4)nc12)CCN3
85.6

Under 361931-004-R-J1-PDC multicell spheroid viability, report viability, T/C for Cn1ncc(Cl)c1-c1cc(C(=O)NC(CN)Cc2cccc(F)c2)sc1Cl (stereo unspecified) + COc1c(OCCCN2CCOCC2)ccc2c3n(c(=NC(=O)c4cnc(N)nc4)nc12)CCN3
94.9

Under 361931-004-R-J1-PDC multicell spheroid viability, report viability, T/C for C=CC(=O)N1CCN(c2nc(=O)n(-c3c(C)ccnc3C(C)C)c3nc(-c4c(O)cccc4F)c(F)cc23)C(C)C1 (stereo unspecified) + Cc1nc(NC(=O)N2CCCC2C(N)=O)sc1-c1ccnc(C(C)(C)C(F)(F)F)c1
91

Under 361931-004-R-J1-PDC multicell spheroid viability, report viability, T/C for C#Cc1c(F)ccc2cc(O)cc(-c3ncc4c(N5CC6CCC(C5)N6)nc(OCC56CCCN5CC(F)C6)nc4c3F)c12 (stereo unspecified) + COc1c(OCCCN2CCOCC2)ccc2c3n(c(=NC(=O)c4cnc(N)nc4)nc12)CCN3
91.5

Under 361931-004-R-J1-PDC multicell spheroid viability, report viability, T/C for C#Cc1c(F)ccc2cc(O)cc(-c3ncc4c(N5CC6CCC(C5)N6)nc(OCC56CCCN5CC(F)C6)nc4c3F)c12 (stereo unspecified) + CC(Nc1ccc2c(c1)OCCn1cc(N3C(=O)OCC3C(F)F)nc1-2)C(N)=O
101

Under 361931-004-R-J1-PDC multicell spheroid viability, report viability, T/C for Cn1nccc1Nc1nccc(-c2ccn(C(CO)c3ccc(Cl)c(F)c3)c(=O)c2)n1 (stereo unspecified) + COc1c(OCCCN2CCOCC2)ccc2c3n(c(=NC(=O)c4cnc(N)nc4)nc12)CCN3
92
